The reported measurements were obtained from BindingDB's records for doi:10.1016/j.bmc.2005.05.065.

experimental_target: Replicase polyprotein 1ab (Severe acute respiratory syndrome coronavirus, UniProt P0C6X7)
pIC50: −log10 of the molar value.
quantity_measured: pIC50

mol_smiles=CCOC(=O)/C=C/[C@H](C[C@@H]1CCNC1=O)NC(=O)[C@@H](CC(=O)[C@@H](NC(=O)c1cc(C)on1)C(C)C)Cc1ccc(F)cc1 value_observed="< 4.00"
